- Tested on: MDA-MB-231 breast
- assay name: NCI tumour cell line growth inhibition, 48 h

[
  {
    "molecule": "CCN1CN(c2ccccc2)C2(CCN(CC(CC3OCCO3)c3ccc(F)cc3)CC2)C1=O (configuration not stated)",
    "TGI": "> 44.2 µM"
  },
  {
    "molecule": "Cc1nn(-c2ccc(Cl)cc2)c2nc3c(nc12)C(=O)C(=O)c1ccccc1-3",
    "TGI": "66.3 µM"
  },
  {
    "molecule": "CSc1nc2c(c(=O)[nH]1)N=C(c1ccccc1)CC(c1ccccc1)N2 (configuration not stated)",
    "TGI": "45.5 µM"
  },
  {
    "molecule": "CC[C@H](CO)Nc1nc(NCc2ccccc2)c2ncn(C(C)C)c2n1",
    "TGI": "> 100 µM"
  },
  {
    "molecule": "COc1ccc(-c2c(C#N)c(S)n(NS(=O)(=O)c3ccccc3)c(=O)c2C#N)cc1",
    "TGI": "> 100 µM"
  },
  {
    "molecule": "CC(C)N(C(C)C)S(=O)(=O)C[C@]12CC[C@H](CC13OCC(CS(=O)(=O)c1ccccc1)O3)C2(C)C (some centres not stated)",
    "TGI": "> 100 µM"
  },
  {
    "molecule": "Cc1ccc(C(=O)N/N=C(\\N=Nc2ccc(C(=O)O)cc2)c2ccc(N(CCC#N)CCC#N)cc2C)cc1",
    "TGI": "> 100 µM"
  }
]

----------
- Test system: M14 melanoma
- assay name: NCI tumour cell line growth inhibition, 48 h
Would you please tag the item 1 when its TGI is 30 µM or above, and -1 when it is below?

[
  {
    "compound": "COc1cccc(/C=C2\\S/C(=N/Nc3nc(-c4ccc([N+](=O)[O-])cc4)cs3)NC2=O)c1O",
    "qualitative label": 1
  },
  {
    "compound": "O=[N+]([O-])c1ccc(N2CCC(CCCC3CCN(c4ccc([N+](=O)[O-])cc4[N+](=O)[O-])CC3)CC2)c([N+](=O)[O-])c1",
    "qualitative label": -1
  },
  {
    "compound": "COc1ccccc1C1c2cc3c(cc2OC(N2CCOCC2)C1C)OCO3 (configuration not stated)",
    "qualitative label": 1
  },
  {
    "compound": "NC(=O)c1ccc(-c2nc(-c3ccc4c(c3)OCO4)c(-c3ccccn3)[nH]2)cc1",
    "qualitative label": 1
  },
  {
    "compound": "N#Cc1c(O)c(/C=N/c2ncccn2)c(=O)n2c1[nH]c1ccccc12",
    "qualitative label": 1
  },
  {
    "compound": "O=[N+]([O-])c1ccc(NNN=Nc2ccc(-c3nc4ccccc4s3)cc2)c([N+](=O)[O-])c1",
    "qualitative label": 1
  },
  {
    "compound": "O=C(N/N=C/c1ccccc1)c1cccc2nc3ccccc3nc12",
    "qualitative label": 1
  },
  {
    "compound": "CC(=O)[CH-]C(=O)c1ccccc1.CC(=O)[CH-]C(=O)c1ccccc1.CC(=O)[CH-]C(=O)c1ccccc1.[In+3]",
    "qualitative label": 1
  },
  {
    "compound": "COc1cc([N+](=O)[O-])c(OC)cc1-c1nc2sccn2c1/C=N/N=C(N)N",
    "qualitative label": 1
  },
  {
    "compound": "CC(=O)OC(Cc1c(O)c2c(C)cccc2oc1=O)C(C)(C)O (configuration not stated)",
    "qualitative label": 1
  },
  {
    "compound": "Cc1nn(-c2ccc([N+](=O)[O-])cc2)c2ncnc(N/N=C/c3ccccc3O)c12",
    "qualitative label": -1
  }
]

Reference source for all entries: PubChem BioAssay (NCI)
